The origin of these recorded values is patent US20030186281A1.

Recorded β-Galactosidase Activity, Cultured Without ATC for the following molecules
# System: tet operator sequence
# assay_info: β-galactosidase activity of a tetracycline-regulated promoter in transformed E. coli with revTetR, in the presence and absence of anhydrotetracycline (atc)
# Format: cell-based, Escherichia coli
# assay_setup: RevTetR isolate cultured in the absence of anhydrotetracycline (ATC)
Answer as a number with no unit attached.

TetRrev6-3: revTetR(BD) V99G H100P (protein, Modified tetracycline repressor, revTetR(BD) V99G H100P) MSRLDKSKVINSALELLNEVGIEGLTTRKLAQKLGVEQPTLYWHVKNKRALLDALAVEILARHHDYSLPAAGESWQSFLRNNAMSFRRALLRYRDGAKGPLGTRPDEKQYDTVETQLRFMTENGFSLRDGLYAISAVSHFTLGAVLEQQEHTAALTDRPAAPDENLPPLLREALQIMDSDDGEQAFLHGLESLIRGFEVQLTALLQIV: 23.0695

Note: attention shifts to another entry.
Look up and report measured β-Galactosidase Activity, Cultured Without ATC for this entry: TetRrev4/6-24: revTetR(BD) A61T V99R (protein, Modified tetracycline repressor, revTetR(BD) A61T V99R) MSRLDKSKVINSALELLNEVGIEGLTTRKLAQKLGVEQPTLYWHVKNKRALLDALAVEILTRHHDYSLPAAGESWQSFLRNNAMSFRRALLRYRDGAKRHLGTRPDEKQYDTVETQLRFMTENGFSLRDGLYAISAVSHFTLGAVLEQQEHTAALTDRPAAPDENLPPLLREALQIMDSDDGEQAFLHGLESLIRGFEVQLTALLQIV
95.596
